assay: AUC in Mycobacterium tuberculosis H37Rv ATCC 2517-infected hollow fiber system based in vitro pharmacokinetic-pharmacodynamic tuberculosis model at 7 mg/L for 2 hrs; format: ADME
Value kind: AUC at 2 h, 7 mg/L (ng·h/mL)
Respond numerically; units are ng·h/mL and should not be typed.

Q: What value of measured AUC at 2 h, 7 mg/L is listed for `CO[C@H]1/C=C/O[C@@]2(C)Oc3c(C)c(O)c4c(O)c(c(/C=N/N5CCN(C)CC5)c(O)c4c3C2=O)NC(=O)/C(C)=C\C=C\[C@H](C)[C@H](O)[C@@H](C)[C@@H](O)[C@@H](C)[C@H](OC(C)=O)[C@@H]1C` ?
Result: 14000

* * *

test: AUC (0 to 168 hrs) in Mycobacterium tuberculosis H37Rv ATCC 2517-infected patient serum at 600 mg/day, po; format: ADME, organism-based, Plasma; parameters: time < 168 hr, dose 600 mg/day, route oral; settings: human
Value kind: AUC at 168 h
Write the quantity with the unit trailing the number.

Q: What value of measured AUC at 168 h is listed for `CO[C@H]1/C=C/O[C@@]2(C)Oc3c(C)c(O)c4c(O)c(c(/C=N/N5CCN(C)CC5)c(O)c4c3C2=O)NC(=O)/C(C)=C\C=C\[C@H](C)[C@H](O)[C@@H](C)[C@@H](O)[C@@H](C)[C@H](OC(C)=O)[C@@H]1C` ?
Result: 112 µg·h/mL
